Tested on: human airway smooth muscle cells
assay notes: [Ca2+]i increase in cultured primary human airway smooth muscle cells (Fluo-4 AM)
Assay type: cell-based
test settings: 1.0 mM tastant, FIG. 1c
readout: [Ca2+]i response in human ASM cells

C=C[C@H]1C[N@@]2CC[C@H]1C[C@H]2[C@H](O)c1ccnc2ccc(OC)cc12 [quinine]: [Ca^2+]i responses
OCc1ccccc1O[C@@H]1O[C@H](CO)[C@@H](O)[C@H](O)[C@H]1O [salicin]: no response
C[C@H](NC(=NCC(=O)O)Nc1ccc(C#N)cc1)c1ccccc1 [SC45647]: no response
OC[C@H]1O[C@H](O[C@]2(CCl)O[C@H](CCl)[C@@H](O)[C@@H]2O)[C@H](O)[C@@H](O)[C@H]1Cl [sucralose]: no response
COC(=O)[C@@H]1[C@H]2C[C@H]3c4[nH]c5ccccc5c4CCN3C[C@@H]2CC[C@@H]1O [yohimbine]: [Ca^2+]i responses

Please examine the following record next.
Q: Entry COc1cccc2c1cc([N+](=O)[O-])c1c(C(=O)O)cc3c(c12)OCO3 [aristocholic acid] has what [Ca2+]i response in human ASM cells?
A: [Ca^2+]i responses
